test system: Quadruplex DNA; assay: Stabilization of F-c-kit1-T quadruplex DNA (unknown origin) by measuring difference in melting temperature t1/2 by FRET assay; type: nucleic-acid assay
ΔTm for assorted molecules
readout_label: ΔTm

INSERT INTO measurements (entry_smiles, measured_on, readout_label, result) VALUES
  ('Cc1ccc(-c2nc3ccn4c(/C=N/NC5=NCCN5)c(-c5ccccc5)nc4n3c2/C=N/NC2=NCCN2)cc1', 'Quadruplex DNA', 'ΔTm', '22.4 °C'),
  ('Clc1ccc(-c2nc3n(ccc4nc(-c5ccccc5)c(/C=N/NC5=NCCN5)n43)c2/C=N/NC2=NCCN2)cc1', 'Quadruplex DNA', 'ΔTm', '26.6 °C'),
  ('N=C(N)N/N=C/c1c(-c2ccccc2)nc2ccn3c(C=O)c(-c4ccccc4)nc3n12', 'Quadruplex DNA', 'ΔTm', '22 °C'),
  ('OCc1c(-c2ccccc2)nc2n1ccc1nc(-c3ccccc3)c(/C=N/NC3=NCCN3)n12', 'Quadruplex DNA', 'ΔTm', '8 °C'),
  ('Cc1ccc(-c2nc3ccn4c(/C=N/NC(=N)N)c(-c5ccccc5)nc4n3c2/C=N/NC(=N)N)cc1', 'Quadruplex DNA', 'ΔTm', '25.4 °C'),
  ('N=C(N)N/N=C/c1c(-c2ccccc2)nc2ccn3c(CO)c(-c4ccccc4)nc3n12', 'Quadruplex DNA', 'ΔTm', '10 °C'),
  ('Clc1ccc(-c2nc3ccn4c(/C=N/NC5=NCCN5)c(-c5ccccc5)nc4n3c2/C=N/NC2=NCCN2)cc1', 'Quadruplex DNA', 'ΔTm', '24.6 °C');

###

system: Quadruplex DNA; test: Stabilization of human Tel26 G4 quadruplex DNA assessed as thermal stability by measuring difference in melting temperature t1/2 by circular dichroism spectroscopy; format: nucleic-acid assay
Entry flag: 1 if ΔTm reaches 4 °C; 0 if it does not.

INSERT INTO assay_data (entry_smiles, measured_on, class_assignment) VALUES
  ('Cc1ccc(-c2nc3n(ccc4nc(-c5ccc(C)cc5)c(/C=N/NC5=NCCN5)n43)c2C=O)cc1', 'Quadruplex DNA', 0),
  ('N=C(N)N/N=C/c1c(-c2ccsc2)nc2ccn3c(C=O)c(-c4ccsc4)nc3n12', 'Quadruplex DNA', 1),
  ('N=C(N)N/N=C/c1c(-c2ccccc2)nc2ccn3c(CO)c(-c4ccccc4)nc3n12', 'Quadruplex DNA', 0),
  ('N=C(N)N/N=C/c1c(-c2ccc(Cl)cc2)nc2n1ccc1nc(-c3ccccc3)c(/C=N/NC(=N)N)n12', 'Quadruplex DNA', 1),
  ('Cc1ccc(-c2nc3ccn4c(/C=N/NC5=NCCN5)c(-c5ccccc5)nc4n3c2/C=N/NC2=NCCN2)cc1', 'Quadruplex DNA', 1),
  ('C(=N\NC1=NCCN1)/c1c(-c2ccsc2)nc2n1ccc1nc(-c3ccsc3)c(/C=N/NC3=NCCN3)n12', 'Quadruplex DNA', 0),
  ('Cc1ccc(-c2nc3n(ccc4nc(-c5ccc(C)cc5)c(/C=N/NC(=N)N)n43)c2C=O)cc1', 'Quadruplex DNA', 0),
  ('Clc1ccc(-c2nc3n(ccc4nc(-c5ccccc5)c(/C=N/NC5=NCCN5)n43)c2/C=N/NC2=NCCN2)cc1', 'Quadruplex DNA', 1),
  ('N=C(N)N/N=C/c1c(-c2ccccc2)nc2ccn3c(C=O)c(-c4ccccc4)nc3n12', 'Quadruplex DNA', 1),
  ('N=C(N)N/N=C/c1c(-c2ccccc2)nc2n1ccc1nc(-c3ccc(Cl)cc3)c(/C=N/NC(=N)N)n12', 'Quadruplex DNA', 1),
  ('Cc1ccc(-c2nc3n(ccc4nc(-c5ccc(C)cc5)c(/C=N/NC(=N)N)n43)c2/C=N/NC(=N)N)cc1', 'Quadruplex DNA', 1),
  ('Cc1ccc(-c2nc3n(ccc4nc(-c5ccccc5)c(/C=N/NC(=N)N)n43)c2C=O)cc1', 'Quadruplex DNA', 0),
  ('Cc1ccc(-c2nc3n(ccc4nc(-c5ccc(C)cc5)c(/C=N/NC5=NCCN5)n43)c2/C=N/NC2=NCCN2)cc1', 'Quadruplex DNA', 1),
  ('Cc1ccc(-c2nc3ccn4c(/C=N/NC(=N)N)c(-c5ccccc5)nc4n3c2/C=N/NC(=N)N)cc1', 'Quadruplex DNA', 1),
  ('Clc1ccc(-c2nc3ccn4c(/C=N/NC5=NCCN5)c(-c5ccccc5)nc4n3c2/C=N/NC2=NCCN2)cc1', 'Quadruplex DNA', 1),
  ('Cc1ccc(-c2nc3n(ccc4nc(-c5ccccc5)c(/C=N/NC5=NCCN5)n43)c2/C=N/NC2=NCCN2)cc1', 'Quadruplex DNA', 1);

###

target: Quadruplex DNA; experiment: Displacement of thiazole orange from c-kit1 G4 quadruplex d(DNA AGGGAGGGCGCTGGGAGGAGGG) DNA (unknown origin) assessed as relative affinity by fluorescent intercalator displacement assay; type: nucleic-acid assay
readout_label: IC50 (nM)

INSERT INTO measurements (entry_smiles, measured_on, readout_label, number) VALUES
  ('Clc1ccc(-c2nc3ccn4c(/C=N/NC5=NCCN5)c(-c5ccccc5)nc4n3c2/C=N/NC2=NCCN2)cc1', 'Quadruplex DNA', 'IC50', 2700),
  ('Cc1ccc(-c2nc3ccn4c(/C=N/NC5=NCCN5)c(-c5ccccc5)nc4n3c2/C=N/NC2=NCCN2)cc1', 'Quadruplex DNA', 'IC50', 1300),
  ('Cc1ccc(-c2nc3ccn4c(/C=N/NC(=N)N)c(-c5ccccc5)nc4n3c2/C=N/NC(=N)N)cc1', 'Quadruplex DNA', 'IC50', 1400),
  ('Clc1ccc(-c2nc3n(ccc4nc(-c5ccccc5)c(/C=N/NC5=NCCN5)n43)c2/C=N/NC2=NCCN2)cc1', 'Quadruplex DNA', 'IC50', 1200);

###

experiment: Stabilization of d(CGC GAA TTC GCG TIT CGC GAA TTC GCG) DNA hairpin (unknown origin) assessed as thermal stability by measuring difference in melting temperature t1/2 by circular dichroism spectroscopy (reference value: 75.4 +/- 0.2 degC)
readout_label: ΔTm (°C)

INSERT INTO results (entry_smiles, readout_label, unit_text, number) VALUES
  ('N=C(N)N/N=C/c1c(-c2ccccc2)nc2ccn3c(C=O)c(-c4ccccc4)nc3n12', 'ΔTm', '°C', 1.7),
  ('Cc1ccc(-c2nc3n(ccc4nc(-c5ccc(C)cc5)c(/C=N/NC(=N)N)n43)c2/C=N/NC(=N)N)cc1', 'ΔTm', '°C', 4.1),
  ('Cc1ccc(-c2nc3ccn4c(/C=N/NC5=NCCN5)c(-c5ccccc5)nc4n3c2/C=N/NC2=NCCN2)cc1', 'ΔTm', '°C', 1.1),
  ('Clc1ccc(-c2nc3n(ccc4nc(-c5ccccc5)c(/C=N/NC5=NCCN5)n43)c2/C=N/NC2=NCCN2)cc1', 'ΔTm', '°C', 1.2),
  ('OCc1c(-c2ccccc2)nc2n1ccc1nc(-c3ccccc3)c(/C=N/NC3=NCCN3)n12', 'ΔTm', '°C', 1.3),
  ('N=C(N)N/N=C/c1c(-c2ccccc2)nc2ccn3c(CO)c(-c4ccccc4)nc3n12', 'ΔTm', '°C', 2.3),
  ('Clc1ccc(-c2nc3ccn4c(/C=N/NC5=NCCN5)c(-c5ccccc5)nc4n3c2/C=N/NC2=NCCN2)cc1', 'ΔTm', '°C', 1.2),
  ('C(=N\NC1=NCCN1)/c1c(-c2ccsc2)nc2n1ccc1nc(-c3ccsc3)c(/C=N/NC3=NCCN3)n12', 'ΔTm', '°C', 2);

###

experiment: Stabilization of d(CGC GAA TTC GCG TIT CGC GAA TTC GCG) DNA hairpin (unknown origin) assessed as thermal stability by measuring difference in melting temperature t1/2 by circular dichroism spectroscopy (reference value: 75.4 +/- 0.2 degC)
readout_label: ΔTm (°C)

INSERT INTO results (entry_smiles, readout_label, number) VALUES
  ('N=C(N)N/N=C/c1c(-c2ccc(Cl)cc2)nc2n1ccc1nc(-c3ccccc3)c(/C=N/NC(=N)N)n12', 'ΔTm', 2.6),
  ('Cc1ccc(-c2nc3n(ccc4nc(-c5ccc(C)cc5)c(/C=N/NC5=NCCN5)n43)c2C=O)cc1', 'ΔTm', 0),
  ('Cc1ccc(-c2nc3n(ccc4nc(-c5ccccc5)c(/C=N/NC5=NCCN5)n43)c2/C=N/NC2=NCCN2)cc1', 'ΔTm', 2.2),
  ('N=C(N)N/N=C/c1c(-c2ccccc2)nc2n1ccc1nc(-c3ccc(Cl)cc3)c(/C=N/NC(=N)N)n12', 'ΔTm', 2.3),
  ('Clc1ccc(-c2nc3n(ccc4nc(-c5ccc(Cl)cc5)c(/C=N/NC5=NCCN5)n43)c2/C=N/NC2=NCCN2)cc1', 'ΔTm', 3.5),
  ('Cc1ccc(-c2nc3n(ccc4nc(-c5ccc(C)cc5)c(/C=N/NC(=N)N)n43)c2C=O)cc1', 'ΔTm', 2.3),
  ('Cc1ccc(-c2nc3n(ccc4nc(-c5ccccc5)c(/C=N/NC(=N)N)n43)c2/C=N/NC(=N)N)cc1', 'ΔTm', 3.2),
  ('Cc1ccc(-c2nc3ccn4c(/C=N/NC(=N)N)c(-c5ccccc5)nc4n3c2/C=N/NC(=N)N)cc1', 'ΔTm', 1.3);
